Test system: potential-dependent cation channel of isolated olfactory cells
protocolSummary: Test for measuring potential-dependent cation channel activity (whole-cell recording, inward current on depolarization)
Assay type: cell-based, Japanese fire belly newt (Cynops pyrrhogaster)
conditionContext: evaluation concentration 0.04%; depolarization -90 mV to -20 mV; newt olfactory cells
readoutName: Inhibition ratio (%) (inward current suppression ratio)
Express it in %; write the number only.

Reference set, count: 3
INSERT INTO measurements (smilesrepr, recordednumber) VALUES
  ('OCCC12CC3CC(CC(C3)C1)C2', 63.4),
  ('OC12CC3CC(CC(C3)C1)C2', 72.4),
  ('O=C(O)CC12CC3CC(CC(C3)C1)C2', 82.5);

Shift focus to the following entry.
Kindly note the recorded Inhibition ratio (%) (inward current suppression ratio) for "C1C2CC3CC1CC(C2)C3" , which is 10.9
